Assignment: determine reported Histamine release, percentage relative to total histamine release on boiling for the given substances.
# Test system: rat peritoneal mast cells
# method: Histamine release from peritoneal mast cells
# Type: cell-based, Wistar rats
# applied conditions: 0.1 (μl/ml) antagonist; 37° C., 30 minutes
Numbers only, in %.

Before answering, review these 3 worked examples.
Ac-D-Nal-D-p-Cl-Phe-D-Pal-Ser-Tyr-D-Ser(Rha)-Leu-Ser(Rha)-Pro-D-Ala-NH2 [Example 5] = 2.4
Ac-D-Nal-D-p-Cl-D-Phe-D-Trp-Ser-Tyr-D-Ser(Rha)-Leu-Arg-Pro-Azagly-NH2 [Comparison substance, reference compound] = 2.1
Ac-D-NaI-D-p-Cl-Phe-D-Trp-Ser-Tyr-D-Ser(Rha)-Leu-Ser(Rha)-pro-Azagly-NH2 [Example 1] = 2.82

Prompt: What Histamine release, percentage relative to total histamine release on boiling appears in the records for this substance with rat peritoneal mast cells? Ac-D-Nal-D-p-Cl-Phe-D-Pal-Ser-Tyr-D-Ser(Rha)-Leu-Ser (Rha)-Pro-Azagly-NH2 [Example 2]
Completion: 4.6

---

# System: immature female rats (LHRH-induced ovulation)
# method: Rat antiovulation assay
# Assay type: in vivo
# applied conditions: PMSG-pretreated immature female rats, phenobarbital; 800 ng LHRH s.c. 2 hours after antagonist
assay metric: Ovulation-inhibiting dose (ED 100) (ng per rat s.c.)
Give bare numbers, in ng per rat s.c..

Before answering, review these 3 worked examples.
Ac-D-Nal-D-p-Cl-Phe-D-Pal-Ser-Tyr-D-Ser(Rha)-Leu-Ser(Fuc)-Pro-Azagly-NH2 [Example 4] = 64
Ac-D-Nal-D-p-Cl-Phe-D-Trp-Ser-Tyr-D-Ser(Rha)-Leu-Ser(Xyl)-Pro-Azagly-NH2 [Example 3] = 512
Ac-D-Nal-D-p-Cl-Phe-D-Pal-Ser-Tyr-D-Ser(Rha)-Leu-Ser (Rha)-Pro-Azagly-NH2 [Example 2] = 256

Report Ovulation-inhibiting dose (ED 100) for every entry below.
1. Ac-D-NaI-D-p-Cl-Phe-D-Trp-Ser-Tyr-D-Ser(Rha)-Leu-Ser(Rha)-pro-Azagly-NH2 [Example 1]
2. Ac-D-Nal-D-p-Cl-Phe-D-Pal-Ser-Tyr-D-Ser(Rha)-Leu-Ser(Rha)-Pro-D-Ala-NH2 [Example 5]

Completion:
120
64

---

# System: serum testosterone
# method: Testosterone-lowering effect on infusion by minipumps
# Type: in vivo, rat
# applied conditions: male rats, subcutaneous infusion by minipumps for 7 days
Assignment: determine reported Testosterone-lowering effect on infusion by minipumps: Dose per day for the given substances.
Give bare numbers, in μg/24 h/rat.

Before answering, review these 4 worked examples.
Ac-D-Nal-D-p-Cl-Phe-D-Pal-Ser-Tyr-D-Ser(Rha)-Leu-Ser(Fuc)-Pro-Azagly-NH2 [Example 4] = 60
Ac-D-Nal-D-p-Cl-Phe-D-Pal-Ser-Tyr-D-Ser(Rha)-Leu-Ser(Rha)-Pro-D-Ala-NH2 [Example 5] = 60
Ac-D-Nal-D-p-Cl-Phe-D-Trp-Ser-Tyr-D-Ser(Rha)-Leu-Ser(Xyl)-Pro-Azagly-NH2 [Example 3] = 120
Ac-D-NaI-D-p-Cl-Phe-D-Trp-Ser-Tyr-D-Ser(Rha)-Leu-Ser(Rha)-pro-Azagly-NH2 [Example 1] = 120

Prompt: Given the entry Ac-D-Nal-D-p-Cl-Phe-D-Pal-Ser-Tyr-D-Ser(Rha)-Leu-Ser (Rha)-Pro-Azagly-NH2 [Example 2] , report its measured Testosterone-lowering effect on infusion by minipumps: Dose per day.
Completion: 120
